# system name: SF3b complexes (Homo sapiens, UniProt O75533+Q7RTV0)
# Construct: endogenous in cells; host or cells: Nuclear extracts; A HeLa S3 extract preparation is described for the in vitro splicing assay
# protocol: Scintillation proximity assay (SPA) with [3H]-labelled pladienolide probe
# Type: binding
# assay conditions: SF3B1 (WT); geometric mean; read-out: SPA-ATS GMean IC50 (nM) SF3B1 (WT)
In this scheme, each record receives a class according to its IC50; the ranges are bin 0 = under 3 nM, bin 1 = from 3 nM up to 8 nM, bin 2 = 8 nM and over

| smiles repr | class |
| --- | --- |
| CN[C@@H]1CCN(c2cccc(/C=C(\C)[C@H]3OC(=O)C[C@H](O)CC[C@H](C)[C@@H](OC(=O)N4CCN(C)CC4)/C=C/[C@@H]3C)c2)C1 | bin 2 |
| C/C(=C\c1cc(F)cc(N2CCN(C(=O)Cn3cccn3)CC2)c1)[C@H]1OC(=O)C[C@H](O)CC[C@H](C)[C@@H](OC(=O)N(C)C2CCN(C)CC2)/C=C/[C@@H]1C | bin 0 |
| C/C(=C\c1cccc(N(C)C2CCOCC2)c1)[C@H]1OC(=O)C[C@H](O)CC[C@H](C)[C@@H](OC(=O)N2CCN(C)CC2)/C=C/[C@@H]1C | bin 1 |
| C/C(=C\c1cc(F)c2cn(CC3CC3)nc2c1)[C@H]1OC(=O)C[C@H](O)CC[C@H](C)[C@@H](OC(=O)N2CCN(C)CC2)/C=C/[C@@H]1C | bin 1 |
| C/C(=C\c1cc(F)c2cnn(C)c2c1)[C@H]1OC(=O)C[C@H](O)CC[C@H](C)[C@@H](OC(=O)N2CCN(C)CC2)/C=C/[C@@H]1C | bin 0 |
| C/C(=C\c1ccc2c(C)nn(C)c2c1)[C@H]1OC(=O)C[C@H](O)CC[C@H](C)[C@@H](OC(=O)N2CCN(C)CC2)/C=C/[C@@H]1C | bin 0 |
| C/C(=C\c1cnn(Cc2ccncc2)c1)[C@H]1OC(=O)C[C@H](O)CC[C@H](C)[C@@H](OC(=O)N2CCN(C)CC2)/C=C/[C@@H]1C | bin 2 |
| C/C(=C\c1cc(F)cc(N2CCC3(COC3)C2)c1)[C@H]1OC(=O)C[C@H](O)CC[C@H](C)[C@@H](OC(=O)N2CCN(C)CC2)/C=C/[C@@H]1C | bin 1 |
| C/C(=C\c1cc(F)cc(N2CCN(C(=O)Cn3cccn3)CC2)c1)[C@H]1OC(=O)C[C@H](O)CC[C@H](C)[C@@H](OC(=O)N2CC[C@@H](F)C2)/C=C/[C@@H]1C | bin 2 |
| C/C(=C\c1cc(F)cc(N2CC(F)C2)c1)[C@H]1OC(=O)C[C@H](O)CC[C@H](C)[C@@H](OC(=O)N2CCN(C)CC2)/C=C/[C@@H]1C | bin 1 |

###

# System: Panc 05.04 cells (SF3b K700E mutant)
# protocol: Cell proliferation and viability, CellTiter-Glo, 72 hours
# Type: cell-based
# assay conditions: PANC0504.1 cells, 72 h; −100% cidal, 0% static, 100% maximal growth
property measured: CTGlo-ATS Mean MinResponse % 72 h PANC0504.1 (%)

| compound | system name | unit abbreviation | obs value |
| --- | --- | --- | --- |
| C/C(=C\c1cc(N2CCOCC2)ccc1F)[C@H]1OC(=O)C[C@H](O)CC[C@H](C)[C@@H](OC(=O)N2CCC(N3CCCCC3)CC2)/C=C/[C@@H]1C | Panc 05.04 cells (SF3b K700E mutant) | % | −91.789 |
| CN[C@@H]1CCN(c2cccc(/C=C(\C)[C@H]3OC(=O)C[C@H](O)CC[C@H](C)[C@@H](OC(=O)N4CCN(C)CC4)/C=C/[C@@H]3C)c2)C1 | Panc 05.04 cells (SF3b K700E mutant) | % | −87.085 |
| C/C(=C\c1cc(F)cc(N2CCOCC2)c1)[C@H]1OC(=O)C[C@H](O)CC[C@@](C)(O)[C@@H](OC(=O)N2CCC(N3CCCCC3)CC2)/C=C/[C@@H]1C | Panc 05.04 cells (SF3b K700E mutant) | % | −94.536 |
| C/C(=C\c1ccc(S(=O)(=O)NC2CC2)c(F)c1)[C@H]1OC(=O)C[C@H](O)CC[C@H](C)[C@@H](OC(=O)N2CCN(C)CC2)/C=C/[C@@H]1C | Panc 05.04 cells (SF3b K700E mutant) | % | −12.315 |
| C/C(=C\c1cc(F)cc(N2CCN(C(=O)CO)CC2)c1)[C@H]1OC(=O)C[C@H](O)CC[C@H](C)[C@@H](OC(=O)N2CCN(C)CC2)/C=C/[C@@H]1C | Panc 05.04 cells (SF3b K700E mutant) | % | −90.575 |
| C/C(=C\c1cc(F)cc(N2CCN(CCO)CC2)c1)[C@H]1OC(=O)C[C@H](O)CC[C@H](C)[C@@H](OC(=O)N2CCN(C)CC2)/C=C/[C@@H]1C | Panc 05.04 cells (SF3b K700E mutant) | % | −73.954 |
| C/C(=C\c1cc(F)cc(N2CCN(S(=O)(=O)CCN3CCOCC3)CC2)c1)[C@H]1OC(=O)C[C@H](O)CC[C@H](C)[C@@H](OC(=O)N2CCN(C)CC2)/C=C/[C@@H]1C | Panc 05.04 cells (SF3b K700E mutant) | % | −79.201 |
| C/C(=C\c1cc(F)c2c(c1)nnn2CC1CC1)[C@H]1OC(=O)C[C@H](O)CC[C@H](C)[C@@H](OC(=O)N2CCN(C)CC2)/C=C/[C@@H]1C | Panc 05.04 cells (SF3b K700E mutant) | % | −21.195 |
| C/C(=C\c1cc(F)cc(N2CCN(S(=O)(=O)c3cn(C)cn3)CC2)c1)[C@H]1OC(=O)C[C@H](O)CC[C@H](C)[C@@H](OC(=O)N2CCN(C)CC2)/C=C/[C@@H]1C | Panc 05.04 cells (SF3b K700E mutant) | % | −80.966 |
| C/C(=C\c1cccc(S(=O)(=O)N2CCC(O)CC2)c1)[C@H]1OC(=O)C[C@H](O)CC[C@H](C)[C@@H](OC(=O)N2CCN(C)CC2)/C=C/[C@@H]1C | Panc 05.04 cells (SF3b K700E mutant) | % | −93.120 |
| C/C(=C\c1cc(F)cc(N2CCOCC2=O)c1)[C@H]1OC(=O)C[C@H](O)CC[C@H](C)[C@@H](OC(=O)N2CCN(C)CC2)/C=C/[C@@H]1C | Panc 05.04 cells (SF3b K700E mutant) | % | −90.320 |
| C/C(=C\c1cc(F)cc(N2CCOCC2)c1)[C@H]1OC(=O)C[C@H](O)CC[C@H](C)[C@@H](OC(=O)N(C)C2CCCN(C)C2)/C=C/[C@@H]1C (stereo partly drawn) | Panc 05.04 cells (SF3b K700E mutant) | % | −86.134 |
| C/C(=C\c1cc(F)cc(N2CCN(C(=O)C3CCOCC3)CC2)c1)[C@H]1OC(=O)C[C@H](O)CC[C@H](C)[C@@H](OC(=O)N2CCN(C)CC2)/C=C/[C@@H]1C | Panc 05.04 cells (SF3b K700E mutant) | % | −79.169 |
| C/C(=C\c1ccnc(N2CCOCC2)c1)[C@H]1OC(=O)C[C@H](O)CC[C@H](C)[C@@H](OC(=O)N2CCN(C)CC2)/C=C/[C@@H]1C | Panc 05.04 cells (SF3b K700E mutant) | % | −88.664 |
| C/C(=C\c1cnn(C2CCN(C)CC2)c1)[C@H]1OC(=O)C[C@H](O)CC[C@H](C)[C@@H](OC(=O)N2CCN(C)CC2)/C=C/[C@@H]1C | Panc 05.04 cells (SF3b K700E mutant) | % | 25.144 |
| C/C(=C\c1cc(F)cc(Cl)c1)[C@H]1OC(=O)C[C@H](O)CC[C@H](C)[C@@H](OC(=O)N2CCN(C)CC2)/C=C/[C@@H]1C | Panc 05.04 cells (SF3b K700E mutant) | % | −85.316 |
| CN[C@@H]1CCN(c2cc(F)cc(/C=C(\C)[C@H]3OC(=O)C[C@H](O)CC[C@H](C)[C@@H](OC(=O)N4CCN(C)CC4)/C=C/[C@@H]3C)c2)C1 | Panc 05.04 cells (SF3b K700E mutant) | % | −92.006 |
| C/C(=C\c1cc(F)c2cnn(CC(=O)N(C)C)c2c1)[C@H]1OC(=O)C[C@H](O)CC[C@H](C)[C@@H](OC(=O)N2CCN(C)CC2)/C=C/[C@@H]1C | Panc 05.04 cells (SF3b K700E mutant) | % | −94.673 |
| C/C(=C\c1cc(F)cc(N2CCN(C(=O)C3CCOC3)CC2)c1)[C@H]1OC(=O)C[C@H](O)CC[C@H](C)[C@@H](OC(=O)N2CCN(C)CC2)/C=C/[C@@H]1C (stereo partly drawn) | Panc 05.04 cells (SF3b K700E mutant) | % | −87.719 |
| C/C(=C\c1cc(F)cc(N2CCO[C@@H](C)C2)c1)[C@H]1OC(=O)C[C@H](O)CC[C@H](C)[C@@H](OC(=O)N2CCN(C)CC2)/C=C/[C@@H]1C | Panc 05.04 cells (SF3b K700E mutant) | % | −86.274 |
| C/C(=C\c1cc(F)cc(N2CCN(CCO)C(=O)C2)c1)[C@H]1OC(=O)C[C@H](O)CC[C@H](C)[C@@H](OC(=O)N2CCN(C)CC2)/C=C/[C@@H]1C | Panc 05.04 cells (SF3b K700E mutant) | % | −86.795 |
